Measure: melting point

• O=C(CC(=O)NCc1ccccc1)NCc1ccccc1 = 119 to 121 °C
• COc1ccc(Br)c(-c2nnn[nH]2)c1 = 209 to 211 °C
• COc1ccccc1C(CN)NC(=O)OC(C)(C)C (centres undefined) = 145 to 147 °C
• O=C(O)c1ccc(=O)n(-c2ccccc2F)c1 = 249 to 251 °C
• Fc1ccc2c(Cl)ccnc2c1 = 71 to 73 °C
• Cc1cccc(-n2c(S)nnc2-c2ccccc2)c1 = 133 to 135 °C
• COc1cc(C=C2CC(C(C)(C)C)Cc3c2nc2ccccc2c3C(=O)O)cc(OC)c1OC (centres undefined) = 220 to 222 °C
• O=C1CCCc2c1[nH]c1ccccc21 = 169 to 171 °C
• O=C(O)c1cc(=O)n(-c2ccc([N+](=O)[O-])cc2)[nH]1 = 225 to 227 °C
• CCN(CC)S(=O)(=O)c1ccc2nc(CCl)[nH]c2c1 = 93 to 95 °C
• O=c1c2ccccc2nnn1CO = 133 to 135 °C
• CS(=O)(=O)N1CCCC1C#N (centres undefined) = 62 to 64 °C
• COC(=O)c1c(N)sc2c1CCC2 = 149 to 151 °C
• Cc1cncc(N)c1 = 59 to 63 °C
• Cc1ccc(C(=O)O)c(Cl)c1C = 153 to 155 °C
• COC(=O)c1ccc(COc2ccccc2C=O)cc1 = 90 to 92 °C
• O=C1CSC(c2ccc(F)cc2)N1C1CC1 (centres undefined) = 225 to 227 °C
• CC(Cl)c1nnc(-c2ccc(Cl)cc2Cl)o1 (centres undefined) = 55 to 57 °C
• Cc1[nH]ncc1S(=O)(=O)Cl = 95 to 97 °C
• Fc1cccc2c(CBr)csc12 = 74 to 76 °C
• Clc1nccn2cnnc12 = 195 to 197 °C
• Nc1nc2ccccc2n1CCCn1ccnc1 = 178 to 180 °C
• NCC(CCC(=O)O)C(F)(F)F (centres undefined) = 155 to 157 °C
• O=C(O)c1cc(S(=O)(=O)Cl)c(Br)o1 = 139 to 141 °C
